- testedOn: Histone deacetylase
- testDetails: Inhibition of HDAC in HeLa cells by fluorescent activity assay
- Assay type: cell-based, Homo sapiens
measuredParameter: IC50

Would you please look over these solved cases?
O=C(CCC1=CCCN(CCCc2ccccc2)C1=O)NO: 0.27 µM
CN1CCC=C(CCC(=O)NO)C1=O: > 10 µM
O=C(CC1=CCCN(CCCCc2ccccc2)C1=O)NO: > 10 µM
O=C(CC1=CCCN(Cc2ccccc2)C1=O)NO: > 10 µM
O=C(CC1=CCCN(CCCc2ccccc2)C1=O)NO: > 10 µM
O=C(CCC1=CCCN(CCCCc2ccccc2)C1=O)NO: 0.13 µM

We now examine a further molecule.
molecule O=C(CCCC1=CCCN(CCCCc2ccccc2)C1=O)NO , IC50 observed: > 10 µM

====

# pIC50 values compiled below
- Tested on: RAW264.7
- testDetails: Inhibition of LPS-stimulated NO production in RAW264.7 cells after 24 hrs […]
- Assay type: functional, cell-based
- testConditions: Mus musculus, RAW264.7, 24 h
pIC50: −log10 of the molar value.

molecule O=C(CC1=CCCN(Cc2ccccc2)C1=O)NO , pIC50 observed: < 5.00

molecule O=C(CC1=CCCN(CCc2ccccc2)C1=O)NO , pIC50 observed: < 5.00

molecule C=CCN1CCC=C(CCC(=O)NO)C1=O , pIC50 observed: < 5.00
